assay: Metabolic Stability Study, liver microsome incubation (human); type: in vitro ADME; conditions: human liver microsomes 0.5 mg/mL, 1 μM compound, NADPH; NA^# = very stable, beyond the detection limits; read-out: T1/2 (min) Human
Recorded half-life at 1 μM values for a group of compounds are listed next.
Enter your answer as a number in min; do not include the unit.

// worked examples, half-life at 1 μM included
Compound	half-life at 1 μM [min]
COc1cc(CN2CCN(C3CC4(C3)CN(c3ccc(C(=O)NS(=O)(=O)c5ccc(NC[C@H]6CC[C@](C)(O)CC6)c([N+](=O)[O-])c5)c(Oc5cnc6[nH]cc(F)c6c5)c3)C4)[C@H](c3ccccc3C(C)C)C2)cc(F)c1OC [Example 230]	373
CC(C)c1ccccc1C1CN(Cc2ccc(F)cc2)CCN1C1CC2(CCN(c3ccc(C(=O)NS(=O)(=O)c4ccc(NC[C@H]5CC[C@](C)(O)CC5)c([N+](=O)[O-])c4)c(Oc4cnc5[nH]ccc5c4)c3)CC2)C1 (stereo partly shown) [Example 28]	135
COc1ccc(CN2CCN(C3CC4(C3)CN(c3ccc(C(=O)NS(=O)(=O)c5ccc(NC[C@H]6CC[C@](C)(O)CC6)c([N+](=O)[O-])c5)c(Oc5cnc6[nH]ccc6c5)c3)C4)[C@H](c3ccccc3C(C)C)C2)cc1OC [Example 145]	970

Kindly consider the entry below.
[ask] May I ask what half-life at 1 μM has been recorded for COc1ccc(CN2CCN(C3CC4(CCN(c5ccc(C(=O)NS(=O)(=O)c6ccc(NC[C@H]7CC[C@](C)(O)CC7)c([N+](=O)[O-])c6)c(Oc6cnc7[nH]ccc7c6)c5)CC4)C3)C(c3ccccc3C(C)C)C2)cc1 (stereo partly shown) [Example 19] ?
[reply] 1230

###

biological target: recombinant human Bcl-2-G101V protein (Homo sapiens (Human), UniProt P10415, G101V); experiment: Bcl-2-G101V TR-FRET Assay; type: binding; conditions: Bcl-2 G101V mutant, TR-FRET; read-out: Biochemical assay (IC50, nM) Bcl-2 G101V
Observed property: IC50 (nM)
Enter your answer as a number in nM; do not include the unit.

// worked examples, IC50 included
Compound	Assayed target	IC50 [nM]
COc1cc(CN2CCN(C3CC4(C3)CN(c3ccc(C(=O)NS(=O)(=O)c5ccc(NC[C@H]6CC[C@](C)(O)CC6)c([N+](=O)[O-])c5)c(Oc5cnc6[nH]cc(F)c6c5)c3)C4)[C@H](c3ccccc3C(C)C)C2)cc2c1OCCCO2	recombinant human Bcl-2-G101V protein (Homo sapiens (Human), UniProt P10415, G101V)	0.15
COc1cc(CN2CCN(C3CC4(CCN(c5ccc(C(=O)NS(=O)(=O)c6ccc(NC[C@H]7CC[C@](C)(O)CC7)c([N+](=O)[O-])c6)c(Oc6cnc7[nH]ccc7c6)c5)CC4)C3)C(c3ccccc3C(C)C)C2)ccc1F (some centres unmarked)	recombinant human Bcl-2-G101V protein (Homo sapiens (Human), UniProt P10415, G101V)	1.1
COc1cc(CN2CCN(C3CC4(C3)CN(c3ccc(C(=O)NS(=O)(=O)c5ccc(NC[C@H]6CC[C@](C)(O)CC6)c([N+](=O)[O-])c5)c(Oc5cnc6[nH]cc(F)c6c5)c3)C4)[C@H](c3ccccc3C(C)C)C2)cc2c1OCCC2(F)F	recombinant human Bcl-2-G101V protein (Homo sapiens (Human), UniProt P10415, G101V)	1.9
COc1cc(CN2CCN(C3CC4(CCN(c5ccc(C(=O)NS(=O)(=O)c6ccc(NC[C@H]7CC[C@](C)(O)CC7)c([N+](=O)[O-])c6)c(Oc6cnc7[nH]cc(F)c7c6)c5)CC4)C3)[C@H](c3ccccc3C(C)C)C2)ccc1C(F)(F)F	recombinant human Bcl-2-G101V protein (Homo sapiens (Human), UniProt P10415, G101V)	6.3
COc1ccc(CN2CCN(C3CC4(C3)CN(c3ccc(C(=O)NS(=O)(=O)c5ccc(NC[C@H]6CC[C@](C)(O)CC6)c([N+](=O)[O-])c5)c(Oc5cnc6[nH]cc(F)c6c5)c3)C4)[C@H](c3ccccc3C(C)C)C2)cn1	recombinant human Bcl-2-G101V protein (Homo sapiens (Human), UniProt P10415, G101V)	0.14
[2H]C([2H])([2H])Oc1ccc(CN2CCN(C3CC4(CCN(c5ccc(C(=O)NS(=O)(=O)c6ccc(NC[C@H]7CC[C@](C)(O)CC7)c([N+](=O)[O-])c6)c(Oc6cnc7[nH]ccc7c6)c5)CC4)C3)[C@H](c3ccccc3C(C)C)C2)cc1OC([2H])([2H])[2H]	recombinant human Bcl-2-G101V protein (Homo sapiens (Human), UniProt P10415, G101V)	0.089
CCc1ccc(CN2CCN(C3CC4(CCN(c5ccc(C(=O)NS(=O)(=O)c6ccc(NC[C@H]7CC[C@](C)(O)CC7)c([N+](=O)[O-])c6)c(Oc6cnc7[nH]ccc7c6)c5)CC4)C3)[C@H](c3ccccc3C(C)C)C2)cc1OC	recombinant human Bcl-2-G101V protein (Homo sapiens (Human), UniProt P10415, G101V)	1.9

Kindly consider the entry below.
[ask] May I ask what IC50 has been recorded for `COc1cc(CN2CCN(C3CC4(C3)CN(c3ccc(C(=O)NS(=O)(=O)c5ccc(NC[C@H]6CC[C@](C)(O)CC6)c([N+](=O)[O-])c5)c(Oc5cnc6[nH]cc(F)c6c5)c3)C4)[C@H](c3ccccc3C(C)C)C2)cnc1OC` ?
[reply] 0.07

###

Recorded Ratio of Bcl-2 D103Y/Bcl-2 WT values for a group of compounds are listed next.
molecular target: recombinant human Bcl-2 D103Y protein (Homo sapiens (Human), UniProt P10415, D103Y); assay: Bcl-2-D103Y Biochemical Assay (TR-FRET); assay type: binding; conditions: ratio of IC50
Give your answer as a number; write no unit.

// worked examples, Ratio of Bcl-2 D103Y/Bcl-2 WT included
Compound	Ratio of Bcl-2 D103Y/Bcl-2 WT
COc1cc(CN2CCN(C3CC4(CCN(c5ccc(C(=O)NS(=O)(=O)c6ccc(NC[C@H]7CC[C@](C)(O)CC7)c([N+](=O)[O-])c6)c(Oc6cnc7[nH]cc(F)c7c6)c5)CC4)C3)[C@H](c3ccccc3C(C)C)C2)cc2c1OCC2(C)C	1.9
Cc1ccc(CN2CCN(C3CC4(CCN(c5ccc(C(=O)NS(=O)(=O)c6ccc(NC[C@H]7CC[C@](C)(O)CC7)c([N+](=O)[O-])c6)c(Oc6cnc7[nH]ccc7c6)c5)CC4)C3)C(c3ccccc3C(C)C)C2)cc1 (some centres unmarked)	1.6
COc1ccc(CN2CCN(C3CC4(CCN(c5ccc(C(=O)NS(=O)(=O)c6ccc(NC[C@H]7CC[C@](C)(O)CC7)c([N+](=O)[O-])c6)c(Oc6cnc7[nH]ccc7c6)c5)CC4)C3)[C@H](c3ccccc3C(C)C)C2)cn1	1.6
CNc1ccc(CN2CCN(C3CC4(C3)CN(c3ccc(C(=O)NS(=O)(=O)c5ccc(NC[C@H]6CC[C@](C)(O)CC6)c([N+](=O)[O-])c5)c(Oc5cnc6[nH]cc(F)c6c5)c3)C4)[C@H](c3ccccc3C(C)C)C2)cc1OC	1.1
COc1ccc(CN2CCN(C3CC4(CCN(c5ccc(C(=O)NS(=O)(=O)c6ccc(NC[C@H]7CC[C@](C)(O)CC7)c([N+](=O)[O-])c6)c(Oc6cnc7[nH]ccc7c6)c5)CC4)C3)C(c3ccccc3C(C)C)C2)nc1OC (some centres unmarked)	1.4
COc1ccc(CN2CCN(C3CC4(CCN(c5ccc(C(=O)NS(=O)(=O)c6ccc(NCC7(F)CCC(C)(O)CC7)c([N+](=O)[O-])c6)c(Oc6cnc7[nH]ccc7c6)c5)CC4)C3)[C@H](c3ccccc3C(C)C)C2)cc1 (some centres unmarked) [Example 225]	1.1
CC(C)c1ccccc1C1CN(Cc2ccccc2)CCN1C1CC2(CCN(c3ccc(C(=O)NS(=O)(=O)c4ccc(NC[C@H]5CC[C@](C)(O)CC5)c([N+](=O)[O-])c4)c(Oc4cnc5[nH]ccc5c4)c3)CC2)C1 (some centres unmarked)	2

[ask] Form: Entry = `COc1ccc(CN2CCN(C3CC4(C3)CN(c3ccc(C(=O)NS(=O)(=O)c5ccc(NC[C@H]6CC[C@](C)(O)CC6)c([N+](=O)[O-])c5)c(Oc5cnc6[nH]cc(F)c6c5)c3)C4)[C@H](c3ccccc3C(C)C)C2)cc1OC1CC1` | System = recombinant human Bcl-2 D103Y protein (Homo sapiens (Human), UniProt P10415, D103Y) | Ratio of Bcl-2 D103Y/Bcl-2 WT = ____
[reply] 1.0

###

biological target: recombinant human Bcl-2 D103Y protein (Homo sapiens (Human), UniProt P10415, D103Y); test: Bcl-2-D103Y Biochemical Assay (TR-FRET); assay type: binding; conditions: ratio of IC50
Observed property: Ratio of Bcl-2 D103Y/Bcl-2 WT
Give your answer as a number; write no unit.

// worked examples, Ratio of Bcl-2 D103Y/Bcl-2 WT included
Compound	Result number
COc1ccc(CN2CCN(C3CC4(C3)CN(c3ccc(C(=O)NS(=O)(=O)c5ccc(NC[C@H]6CC[C@](C)(O)CC6)c([N+](=O)[O-])c5)c(Oc5cnc6[nH]ccc6c5)c3)C4)[C@H](c3ccccc3C(C)C)C2)cc1 [Example 147]	1.6
COc1ccc(CN2CCN(C3CC4(CCN(c5ccc(C(=O)NS(=O)(=O)c6ccc(NC[C@H]7CC[C@](C)(O)CC7)c([N+](=O)[O-])c6)c(Oc6cnc7[nH]ccc7c6)c5)CC4)C3)[C@@H](c3ccccc3C(C)C)C2)cc1 [Example 19b]	100

[ask] May I ask what Ratio of Bcl-2 D103Y/Bcl-2 WT has been recorded for CCOc1ccc(CN2CCN(C3CC4(CCN(c5ccc(C(=O)NS(=O)(=O)c6ccc(NC[C@H]7CC[C@](C)(O)CC7)c([N+](=O)[O-])c6)c(Oc6cnc7[nH]ccc7c6)c5)CC4)C3)C(c3ccccc3C(C)C)C2)cc1 (some centres unmarked) [Example 40] ?
[reply] 3.8

[ask] May I ask what Ratio of Bcl-2 D103Y/Bcl-2 WT has been recorded for CC(C)c1ccccc1C1CN(Cc2ccc3c(c2)OCCO3)CCN1C1CC2(CCN(c3ccc(C(=O)NS(=O)(=O)c4ccc(NC[C@H]5CC[C@](C)(O)CC5)c([N+](=O)[O-])c4)c(Oc4cnc5[nH]ccc5c4)c3)CC2)C1 (some centres unmarked) [Example 78] ?
[reply] 2.9

[ask] May I ask what Ratio of Bcl-2 D103Y/Bcl-2 WT has been recorded for COc1ccc(C(=O)N2CCN(C3CC4(C3)CN(c3ccc(C(=O)NS(=O)(=O)c5ccc(NC[C@H]6CC[C@](C)(O)CC6)c([N+](=O)[O-])c5)c(Oc5cnc6[nH]cc(F)c6c5)c3)C4)[C@H](c3ccccc3C(C)C)C2)cc1 [Example 353] ?
[reply] 1.5
